Values from patent US20240101683A1

Molecular target: T1, Human FGFR2βIIIb (human, UniProt P21802-21 22-263, limits assumed)
T1 construct: Construct used in the ELISA (tag, Fc, limits) is not described
T1 sequence (P21802 other isoform, or with tags, fused parts or gaps limits assumed): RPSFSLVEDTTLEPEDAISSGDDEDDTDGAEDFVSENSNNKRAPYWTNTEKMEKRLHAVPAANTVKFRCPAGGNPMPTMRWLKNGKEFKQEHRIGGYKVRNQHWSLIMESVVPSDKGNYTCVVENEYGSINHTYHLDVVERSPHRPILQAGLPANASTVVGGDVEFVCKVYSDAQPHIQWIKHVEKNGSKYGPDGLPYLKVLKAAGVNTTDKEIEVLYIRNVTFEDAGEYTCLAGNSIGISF
Assay: ELISA, coated antigen, anti-Fab HRP
readout kind: EC50 (nM)
One number for each entry, in nM.

Reference set (2 entries):
>  <binder>
FWB1921 (antibody, V domains shown) VH: QVQLVQSGAEVKKPGSSVKVSCKASGYIFTSYNVHWVRQAPGQGLEWIGSIYPDNGDSTYNQNYRGRATITADKSTSTAYMELSSLRSEDTAVYYCARGDFAYWGQGTLVTVSS VL: DIQMTQSPSSLSASVGDRVTITCKGSNGVSNDIAWYQQKPGKAPKLLIYSASYRYSGVPSRFSGSGSGTDFTFTISSLQPEDIATYYCQQHSTTPYTFGQGTKLEIK

>  <measurement units>
nM

>  <EC50>
0.176

$$$$
>  <binder>
FWB1916 (antibody, V domains shown) VH: QVQLVQSGAEVKKPGSSVKVSCKASGYIFTSYNVHWVRQAPGQGLEWIGSIYPDNGDSSYNQNYKGRATITADKSTSTAYMELSSLRSEDTAVYYCARGDFAYWGQGTLVTVSS VL: DIQMTQSPSSLSASVGDRVTITCKASNGISNDIAWYQQKPGKAPKLLIYSASYRYSGVPSRFSGSGSGTDFTFTISSLQPEDIATYYCQQHSTTPYTFGQGTKLEIK

>  <measurement units>
nM

>  <EC50>
0.143

$$$$

Query: Field request: EC50 | item: FWB1905 (antibody, V domains shown) VH: QVQLVQSGAEVKKPGSSVKVSCKASGYIFTSYNVHWVRQAPGQGLEWIGSIYPDNGDSSYNQNYKGRATITADKSTSTAYMELSSLRSEDTAVYYCARGDFAYWGQGTLVTVSS VL: DIQMTQSPSSLSASVGDRVTITCKASNGVSNDIAWYQQKPGKAPKLLIYSASYRYSGVPSRFSGSGSGTDFTFTISSLQPEDIATYYCQQHSTTPYTFGQGTKLEIK
Response: 0.173
